The measurements presented in this section are drawn from PubChem BioAssay (EPA / NIEHS).

- test.description: TOX21_p53_BLA_p3_viability: Viability Assessment in the Tox21 HCT-116 p53 Agonism Beta-lactamase Assay, Phase 3 (AID 2283593);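 also: cells exposed to compound for 16 h before reading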
Records with an inconclusive call do not appear. The source made the active and inactive calls. The calls were made as follows: active = hit-call score of the fitted dose curve at least 0.9, where 1 is the maximum; inconclusive = response in the unintended direction; inactive = score below 0.9.
Classes used: TRUE for active, FALSE for inactive

1. Nc1ccncc1	FALSE
2. COC1=CC(=O)O[C@@H](/C=C/c2ccccc2)C1	FALSE
3. C1CS1	FALSE
4. C=C[C@H]1CN2CC[C@H]1C[C@@H]2[C@@H](O)c1ccnc2ccccc12	FALSE
5. N#CC(c1ccccc1)c1ccccc1	FALSE
6. O=C(CCl)C(Cl)Cl	FALSE
7. CC=C(CC)C(=O)NC(N)=O	FALSE
8. O=C(NC(=O)c1c(F)cccc1F)Nc1ccc(Oc2ccc(C(F)(F)F)cc2Cl)cc1F	FALSE
9. CN[C@H]1C[C@@H](N)[C@H](O)[C@@H](O[C@@H]2O[C@H](CO)[C@H](O)[C@@H]3OC4(O[C@H]23)O[C@H](C(N)CO)[C@H](O)[C@H](O)C4O)[C@@H]1O (some centres undefined)	FALSE
10. N#Cc1sc2c(=O)c3ccccc3c(=O)c=2sc1C#N	TRUE
11. CCC[CH2][Sn]([CH2]CCC)([CH2]CCC)[O][Sn]([CH2]CCC)([CH2]CCC)[CH2]CCC	TRUE
12. CC(=O)C(Cl)(Cl)Cl	FALSE
13. CCCCCC[N+](=O)[O-]	FALSE
14. O=C1C=C2C=C[C@@H]3C[C@@]2(O1)[C@H]1CCCCN31	FALSE
15. F/C(COc1ccc2c(c1)[nH]c1ccccc12)=C1/CN2CCC1CC2	FALSE
16. CC1(C)C(/C=C(\Cl)C(F)(F)F)C1C(=O)OC(C#N)c1cccc(Oc2ccccc2)c1 (centres undefined)	FALSE
17. Clc1ccc(-c2ccc(Cl)c(Cl)c2Cl)c(Cl)c1Cl	FALSE
18. Nc1ccc(Cl)c(Cl)c1	FALSE
19. CO[C@]12CC[C@@]3(C[C@@H]1[C@](C)(O)C(C)(C)C)[C@H]1Cc4ccc(O)c5c4[C@@]3(CCN1CC1CC1)[C@H]2O5	TRUE
20. N#Cc1cccc(C#N)c1	FALSE
21. CCCCCCCCCCCCN=C(N)N	FALSE
22. BrCC(Br)C1CCC(Br)C(Br)C1 (centres undefined)	FALSE
23. CSc1ccc(C(=O)C(C)(C)N2CCOCC2)cc1	FALSE
24. C[C@]12CC[C@H]3[C@@H](CCC4=CC(=O)CC[C@@H]43)[C@@H]1CC[C@@H]2O	FALSE
